# PROTOCOL_DETAILS: Oral bioavailability in mouse at 45 mg/kg administered as single via gavage
# Format: ADME, organism-based
# STUDY_CONDITIONS: in vivo
MEASUREMENT_KIND: bioavailability
The reply should consist of the numeric value with the unit placed after it.

Query: So what does the record say about bioavailability for "COc1ncc(F)cc1CNc1ccc(Cc2c[nH]c3ncc(C)cc23)c(F)n1" ?
Reply: 59%

* * *

# TEST_TARGET: PI3-kinase p110-alpha/p85-alpha (Homo sapiens, UniProt P42336)
# Sequence (P27986 whole entry): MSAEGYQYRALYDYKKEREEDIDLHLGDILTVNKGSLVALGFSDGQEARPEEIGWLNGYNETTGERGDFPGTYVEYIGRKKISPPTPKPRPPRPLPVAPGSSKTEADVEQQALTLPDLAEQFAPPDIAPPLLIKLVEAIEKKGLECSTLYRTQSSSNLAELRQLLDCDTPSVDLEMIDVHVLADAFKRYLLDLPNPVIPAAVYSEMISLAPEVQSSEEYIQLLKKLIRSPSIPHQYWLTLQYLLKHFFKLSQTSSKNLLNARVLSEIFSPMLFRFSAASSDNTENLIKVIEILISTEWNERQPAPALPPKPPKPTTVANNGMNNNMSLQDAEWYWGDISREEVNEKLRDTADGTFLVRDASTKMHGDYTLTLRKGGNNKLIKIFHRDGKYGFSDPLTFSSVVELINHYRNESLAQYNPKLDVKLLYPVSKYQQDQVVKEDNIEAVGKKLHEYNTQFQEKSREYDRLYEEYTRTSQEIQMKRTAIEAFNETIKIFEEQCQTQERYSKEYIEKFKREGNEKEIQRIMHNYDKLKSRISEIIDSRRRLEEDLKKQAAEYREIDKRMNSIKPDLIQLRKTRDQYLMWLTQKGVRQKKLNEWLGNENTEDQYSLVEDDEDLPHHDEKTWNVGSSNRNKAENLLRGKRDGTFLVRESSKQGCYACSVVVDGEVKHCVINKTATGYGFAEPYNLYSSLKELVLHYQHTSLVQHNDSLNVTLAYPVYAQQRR
# Sequence (P42336 whole entry): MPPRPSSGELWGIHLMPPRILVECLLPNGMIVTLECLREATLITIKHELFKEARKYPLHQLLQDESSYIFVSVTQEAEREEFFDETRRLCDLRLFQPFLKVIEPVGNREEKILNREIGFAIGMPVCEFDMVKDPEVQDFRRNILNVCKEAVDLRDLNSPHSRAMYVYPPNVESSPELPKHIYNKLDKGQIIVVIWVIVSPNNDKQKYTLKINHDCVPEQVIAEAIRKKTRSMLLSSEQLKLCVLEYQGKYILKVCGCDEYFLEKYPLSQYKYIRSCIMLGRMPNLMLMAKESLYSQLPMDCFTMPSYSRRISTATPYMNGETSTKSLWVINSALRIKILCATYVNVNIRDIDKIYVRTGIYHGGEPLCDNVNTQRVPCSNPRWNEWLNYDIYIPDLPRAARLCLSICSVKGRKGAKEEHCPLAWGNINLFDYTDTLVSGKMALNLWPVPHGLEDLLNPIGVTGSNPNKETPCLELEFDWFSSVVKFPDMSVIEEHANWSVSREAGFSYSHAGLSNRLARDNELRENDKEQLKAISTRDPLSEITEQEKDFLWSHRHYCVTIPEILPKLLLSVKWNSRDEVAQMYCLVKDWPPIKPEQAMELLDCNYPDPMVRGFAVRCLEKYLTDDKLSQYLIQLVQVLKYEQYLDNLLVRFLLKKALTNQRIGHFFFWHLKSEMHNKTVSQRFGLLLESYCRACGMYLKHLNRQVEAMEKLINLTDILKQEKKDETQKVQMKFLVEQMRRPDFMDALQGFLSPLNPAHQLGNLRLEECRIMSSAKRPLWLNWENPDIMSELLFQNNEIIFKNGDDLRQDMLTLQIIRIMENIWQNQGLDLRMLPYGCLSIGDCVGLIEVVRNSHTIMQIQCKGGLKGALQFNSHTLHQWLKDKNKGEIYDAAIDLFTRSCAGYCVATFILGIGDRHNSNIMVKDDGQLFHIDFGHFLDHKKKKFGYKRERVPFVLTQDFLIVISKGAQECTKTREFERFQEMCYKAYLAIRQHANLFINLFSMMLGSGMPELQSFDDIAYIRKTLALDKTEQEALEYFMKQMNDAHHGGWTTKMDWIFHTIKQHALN
# PROTOCOL_DETAILS: Inhibition of PIK3CA/PIK3R1 (unknown origin)
MEASUREMENT_KIND: IC50

Query: So what does the record say about IC50 for "COc1ncc(F)cc1CNc1ccc(Cc2c[nH]c3ncc(C)cc23)c(F)n1" ?
Reply: > 1 µM
